Values from the supplement of paper PMC12042874

- Assay Name: amyloid nucleation score (Sup35N fusion, yeast selection) (log enrichment); library NNK3; higher = more nucleation; inactive = no reads after selection;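 note: zero at mode of non-aggregating sequences after 7 days selection at 30°C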
Measurement Label: amyloid nucleation score

> print(dat)
              substance  value.measured
1                VCNIAQ        inactive
2  RLRCLYTSEISVGIGNNWVS        inactive
3  KYSTSPNFKIIQVLMGLPLR        inactive
4  YGRLCDALKGSWYCSIYHGS            1.79

Prompt: Suppose we examine the substance CWDYWACGQGTA ; what amyloid nucleation score value has been reported?
Response: inactive

Prompt: Suppose we examine the substance LMVASISNVQRRIVRVKLCD ; what amyloid nucleation score value has been reported?
Response: inactive

Prompt: Suppose we examine the substance SYDMTLHG ; what amyloid nucleation score value has been reported?
Response: 0.436

Prompt: Suppose we examine the substance VHKFDSL ; what amyloid nucleation score value has been reported?
Response: inactive

Prompt: Suppose we examine the substance YVFSTWSSP ; what amyloid nucleation score value has been reported?
Response: inactive

Prompt: Suppose we examine the substance FFFRYILKGMPVLFAVCRHC ; what amyloid nucleation score value has been reported?
Response: inactive

Prompt: Suppose we examine the substance SGLFWRTLEPLNSVDRFYG ; what amyloid nucleation score value has been reported?
Response: inactive

* * *

- Assay Name: amyloid nucleation score (Sup35N fusion, yeast selection) (log enrichment); library NNK1; higher = more nucleation; inactive = no reads after selection
Just so you know, the groups by amyloid nucleation score go like this: A: < -0.2; B: ≥ -0.2 and < 0.6; C: ≥ 0.6

Here's what some known entries look like.
> print(dat)
              substance  category
1  RIISRCFVMDVWFERQYVTR         C
2          CVPPRVRCRFEL         C
3               SLFAQKS         A
4              ASFYPKPS         B
5         YEGYGPCWRKLYS         B
6  VKVVALRIWRSEDLVVRFWG         B

Prompt: For FVQFTCSIRDYCA , which amyloid nucleation score bin applies?
Response: B

Prompt: For RFRNGLNLFRMSNMFSNLKH , which amyloid nucleation score bin applies?
Response: B

Prompt: For LRLCWLNQVRNKQGL , which amyloid nucleation score bin applies?
Response: A

Prompt: For YGVRFGVFLSTCLNFSGEYR , which amyloid nucleation score bin applies?
Response: B

Prompt: For ITMGTGCSAGEWFMVYMMC , which amyloid nucleation score bin applies?
Response: C

Prompt: For YSDWHI , which amyloid nucleation score bin applies?
Response: A

Prompt: For IKLFARGGI , which amyloid nucleation score bin applies?
Response: B

Prompt: For TGQLDV , which amyloid nucleation score bin applies?
Response: C

Prompt: For NGGYYAMGVGFLYVFALCHD , which amyloid nucleation score bin applies?
Response: C

Prompt: For SYLQGELTDDSMTSFFKGM , which amyloid nucleation score bin applies?
Response: A

Prompt: For FLGLLLCCLVRAPLPFGMRA , which amyloid nucleation score bin applies?
Response: A

* * *

- Assay Name: amyloid nucleation score (Sup35N fusion, yeast selection) (log enrichment); library NNK3; higher = more nucleation; inactive = no reads after selection
Measurement Label: amyloid nucleation score

> print(dat)
              substance         measurement.label  value.measured
1  SVYGIYGSNYMNTFVVVLVG  amyloid nucleation score        inactive
2  ILVIYCRVMKCFKCTRMRLC  amyloid nucleation score        inactive
3  NDCRCTIFAAYIKILYKFLG  amyloid nucleation score            1.13
4         GTMYVGSGGYEKL  amyloid nucleation score        inactive
5            RWSVLAVSCM  amyloid nucleation score        inactive
6                GVGTYI  amyloid nucleation score        inactive
7  DACTVVCVCIQSIRGSQVSC  amyloid nucleation score            1.09
8           VMYSGFRVILF  amyloid nucleation score           0.751

# evaluate next
Prompt: Suppose we examine the substance IYGVRYWV ; what amyloid nucleation score value has been reported?
Response: inactive

* * *

- Assay Name: amyloid nucleation score (Sup35N fusion, yeast selection) (log enrichment); library NNK1; higher = more nucleation; inactive = no reads after selection
Lab note: compare amyloid nucleation score against 0.03. Equal or greater, write condition met. Smaller, write condition not met.

Here's what some known entries look like.
> print(dat)
       ordered.residues           category
1         LLGRLVQCCRPWY  condition not met
2  THQGWYSQNEHERRWIVHSF  condition not met
3          WVKCRDWYSILF      condition met
4  ISRWMSVDLCLPKLATGTVS  condition not met
5  AAFSDPRNRLMKPVELKHAL      condition met

Prompt: Item KAPAMHWLDRFVGYVPRV with amyloid nucleation score of 0.03 or above?
Response: condition not met

Prompt: Item VAFNICSENRLVNFR with amyloid nucleation score of 0.03 or above?
Response: condition not met

Prompt: Item THCFFYHLGKFYMSKITLAS with amyloid nucleation score of 0.03 or above?
Response: condition not met

Prompt: Item HWSMCRTGFWSLYKMDVTQT with amyloid nucleation score of 0.03 or above?
Response: condition met

Prompt: Item RLLWRWWRAVDVRGHDRLNL with amyloid nucleation score of 0.03 or above?
Response: condition not met

* * *

Reported amyloid nucleation score values are given for each entry in this list.
- Assay Name: amyloid nucleation score (Sup35N fusion, yeast selection) (log enrichment); library NNK2; higher = more nucleation; inactive = no reads after selection
Hey, just send me the number, nothing else.

> print(dat)
       ordered.residues         measurement.label  value.measured
1  RKRRLMYLSGDNTQPFARLY  amyloid nucleation score          -0.686

Prompt: Suppose we examine the sequence YHMGDGLDVWGRDRSG ; what amyloid nucleation score value has been reported?
Response: 0.901

Prompt: Suppose we examine the sequence IITYVLLFNKFNTGVCE ; what amyloid nucleation score value has been reported?
Response: 7.39

* * *

- Assay Name: amyloid nucleation score (Sup35N fusion, yeast selection) (log enrichment); library NNK2; higher = more nucleation; inactive = no reads after selection
Reported amyloid nucleation score values are given for each entry in this list.
Hey, just send me the number, nothing else.

> print(dat)
       ordered.residues  value.measured
1  FCSSIVMVNSQCFVKSFSTK            6.31
2              VFNILFSM             9.1
3  TMRFLVGFCLTNWDNLNASC            3.67
4           YTAQRLNSTYI          -0.506
5              EYQLDHVY          -0.711
6  VKTRTFRTCRSHRIEFMDWV          -0.064
7           HIGIWGRQTLR            3.55
8  RLGEWGFNRLVWFNKEAVCS           0.495

Prompt: Suppose we examine the sequence YVRGSDGSKKPWVYSAVGIF ; what amyloid nucleation score value has been reported?
Response: -0.793

Prompt: Suppose we examine the sequence ENATFLATCI ; what amyloid nucleation score value has been reported?
Response: -0.217

Prompt: Suppose we examine the sequence HELAIISN ; what amyloid nucleation score value has been reported?
Response: 2.97

Prompt: Suppose we examine the sequence ILISRIFIFDNYMIYLCCCG ; what amyloid nucleation score value has been reported?
Response: -0.762

Prompt: Suppose we examine the sequence RKVSSARNSVIATSMSNNSV ; what amyloid nucleation score value has been reported?
Response: -1.61

Prompt: Suppose we examine the sequence SELRTAKPVN ; what amyloid nucleation score value has been reported?
Response: 0.635

* * *

- Assay Name: amyloid nucleation score (Sup35N fusion, yeast selection) (log enrichment); library NNK2; higher = more nucleation; inactive = no reads after selection
Measurement Label: amyloid nucleation score

// solved cases for amyloid nucleation score follow
> print(dat)
       ordered.residues         measurement.label  value.measured
1           TDLIINMSQNR  amyloid nucleation score            2.42
2         PRDNSQVLILLNW  amyloid nucleation score            5.42
3  VGDVKVWTVRSSTNATEKFL  amyloid nucleation score           0.551
4  TLCWLYLWVYRCKDYEELTC  amyloid nucleation score          -0.167
5  GYNLKILESIMEGSAGLMCT  amyloid nucleation score          -0.779

Prompt: Suppose we examine the sequence ELMVTVVDHCTFVVTRLCGE ; what amyloid nucleation score value has been reported?
Response: 7.18

Prompt: Suppose we examine the sequence CSFYRSWVLTNWSANVVFTW ; what amyloid nucleation score value has been reported?
Response: -0.217

Prompt: Suppose we examine the sequence DLQIFTLLFTR ; what amyloid nucleation score value has been reported?
Response: inactive

Prompt: Suppose we examine the sequence WFFKTAMWVITT ; what amyloid nucleation score value has been reported?
Response: 0.081

Prompt: Suppose we examine the sequence YGSLVYVPAYGEISL ; what amyloid nucleation score value has been reported?
Response: -0.921

Prompt: Suppose we examine the sequence YRISMTAWSGRLSG ; what amyloid nucleation score value has been reported?
Response: 4.03

Prompt: Suppose we examine the sequence GSKGIRRYCLTIFVSPVQSA ; what amyloid nucleation score value has been reported?
Response: 0.895
